# Test system: Saccharomyces cerevisiae;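 further: PSI is a weighted mean of sequencing reads over stability bins, variants kept only with over 10 reads, mCherry proximal and sfGFP distal, peptide attached via GGGS linker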
# test-summary: protein stability index of tFT-peptide fusion (C-terminal peptide) (PSI (0-1 scale)); higher = more stable (slower turnover)
# reported-conditions: genetic background: wild type; temperature: 30 C
Hi there, I'd appreciate the recorded protein stability index for every entry that follows.
Note: the reply should be a number with no unit written.

Input line: Check the records and state protein stability index for "PDSAGAALSLSS"
Output line: 0.695

Input line: Return reported protein stability index. Input sequence: "SLASYFFHVSHS"
Output line: 0.713

Input line: Check the records and state protein stability index for "SRASTGPPPPGT"
Output line: 0.692

Input line: Determine its reported protein stability index: "SSWEMMLYRLTE"
Output line: 0.693
